Ref: ChEMBL document CHEMBL1122433

# I50 listing for each entry below
- TEST_TARGET: Phosphodiesterase 1 (Bos taurus, UniProt Q01061+P14100)
- ASSAY_OVERVIEW: Inhibitory activity against cyclic nucleotide phosphodiesterase in bovine heart carried out at 37 C with cAMP […] as substrate.
- Format: tissue-based
Report the value in µM with no unit label.

Consider the following illustrative entries.
{"STRUCTURE_AS_SMILES": "COc1cc2ccnc(Cc3ccc(NCCCl)cc3)c2cc1OC", "TEST_TARGET": "Phosphodiesterase 1 (Bos taurus, UniProt Q01061+P14100)", "UNIT_STRING": "µM", "I50": 4.1}
{"STRUCTURE_AS_SMILES": "COC(=O)/C=C/C(=O)Nc1ccc(-c2nccc3cc(OC)c(OC)cc23)cc1", "TEST_TARGET": "Phosphodiesterase 1 (Bos taurus, UniProt Q01061+P14100)", "UNIT_STRING": "µM", "I50": 14}
{"STRUCTURE_AS_SMILES": "COc1cc2ccnc(Cc3ccc(N)cc3)c2cc1OC", "TEST_TARGET": "Phosphodiesterase 1 (Bos taurus, UniProt Q01061+P14100)", "UNIT_STRING": "µM", "I50": 7.7}

Kindly note the recorded I50 for COC(=O)/C=C/C(=O)Nc1ccc(Cc2nccc3cc(OC)c(OC)cc23)cc1 , which is 8

====

# I50 listing for each entry below
- TEST_TARGET: Phosphodiesterase 1 (Bos taurus, UniProt Q01061+P14100)
- ASSAY_OVERVIEW: Inhibitory activity against cyclic nucleotide phosphodiesterase in bovine heart carried out at 37 C with cAMP […] as substrate.
- Type: tissue-based
Report the value in µM with no unit label.

Consider the following illustrative entries.
{"STRUCTURE_AS_SMILES": "COc1cc2ccnc(Cc3ccc(NC(=O)CCl)cc3)c2cc1OC", "TEST_TARGET": "Phosphodiesterase 1 (Bos taurus, UniProt Q01061+P14100)", "UNIT_STRING": "µM", "I50": 3.9}
{"STRUCTURE_AS_SMILES": "C=CC(=O)Nc1ccc(-c2nccc3cc(OC)c(OC)cc23)cc1", "TEST_TARGET": "Phosphodiesterase 1 (Bos taurus, UniProt Q01061+P14100)", "UNIT_STRING": "µM", "I50": 12}

Reading of I50 for COC(=O)/C=C\C(=O)Nc1ccc(-c2nccc3cc(OC)c(OC)cc23)cc1 with Phosphodiesterase 1 (Bos taurus, UniProt Q01061+P14100): 5.3

Reading of I50 for COc1cc2ccnc(-c3ccc(NC(=O)CCl)cc3)c2cc1OC with Phosphodiesterase 1 (Bos taurus, UniProt Q01061+P14100): 5

Reading of I50 for COc1cc2ccnc(-c3ccc(N)cc3)c2cc1OC with Phosphodiesterase 1 (Bos taurus, UniProt Q01061+P14100): 7.4

Reading of I50 for C=CC(=O)Nc1ccc(Cc2nccc3cc(OC)c(OC)cc23)cc1 with Phosphodiesterase 1 (Bos taurus, UniProt Q01061+P14100): 10

Reading of I50 for COC(=O)/C=C\C(=O)Nc1ccc(Cc2nccc3cc(OC)c(OC)cc23)cc1 with Phosphodiesterase 1 (Bos taurus, UniProt Q01061+P14100): 4

Reading of I50 for COc1cc2ccnc(Cc3ccc(N(CCCl)CCCl)cc3)c2cc1OC with Phosphodiesterase 1 (Bos taurus, UniProt Q01061+P14100): 5.3

Reading of I50 for COc1cc2ccnc(-c3ccc(N(CCCl)CCCl)cc3)c2cc1OC with Phosphodiesterase 1 (Bos taurus, UniProt Q01061+P14100): 5.2

Reading of I50 for COc1cc2ccnc(-c3ccc(NCCCl)cc3)c2cc1OC with Phosphodiesterase 1 (Bos taurus, UniProt Q01061+P14100): 3.5

Reading of I50 for COc1ccc(Cc2nccc3cc(OC)c(OC)cc23)cc1OC with Phosphodiesterase 1 (Bos taurus, UniProt Q01061+P14100): 8.8

====

- TEST_TARGET: Phosphodiesterase 1 (Rattus norvegicus, UniProt Q63421+Q9EPR9+Q01066)
- ASSAY_OVERVIEW: Inhibition of Ca-dependent phosphodiesterase from Rat cerebral cortex using 1 uM cAMP
- Assay type: tissue-based
Lab note - cut at 3 µM for I50: y if strictly below, n if not.

{"STRUCTURE_AS_SMILES": "COC(=O)/C=C/C(=O)Nc1ccc(-c2nccc3cc(OC)c(OC)cc23)cc1", "GROUP": "n"}

*Q* Does COc1ccc(Cc2nccc3cc(OC)c(OC)cc23)cc1OC have I50 strictly under 3 µM?
*A* n

*Q* Does COc1cc2ccnc(-c3ccc(N(CCCl)CCCl)cc3)c2cc1OC have I50 strictly under 3 µM?
*A* n

*Q* Does COC(=O)/C=C\C(=O)Nc1ccc(-c2nccc3cc(OC)c(OC)cc23)cc1 have I50 strictly under 3 µM?
*A* y

*Q* Does COc1cc2ccnc(-c3ccc(NCCCl)cc3)c2cc1OC have I50 strictly under 3 µM?
*A* y

*Q* Does C=CC(=O)Nc1ccc(-c2nccc3cc(OC)c(OC)cc23)cc1 have I50 strictly under 3 µM?
*A* n

*Q* Does COc1cc2ccnc(-c3ccc(NC(=O)CCl)cc3)c2cc1OC have I50 strictly under 3 µM?
*A* y

*Q* Does COc1cc2ccnc(-c3ccc(N)cc3)c2cc1OC have I50 strictly under 3 µM?
*A* n

====

- TEST_TARGET: Phosphodiesterase 1 (Rattus norvegicus) (UniProt Q63421+Q9EPR9+Q01066)
- ASSAY_OVERVIEW: Inhibition of Ca-dependent phosphodiesterase from rat cerebral cortex at 2 uM with 1 uM cGMP, after pre-incubation at 2 uM
- Format: functional, tissue-based
- Design: scale not given: the % may be the effect or the level left
ENDPOINT: Activity (%)
Report the value in % with no unit label.

Consider the following illustrative entries.
{"STRUCTURE_AS_SMILES": "COC(=O)/C=C\\C(=O)Nc1ccc(-c2nccc3cc(OC)c(OC)cc23)cc1", "ENDPOINT": "Activity", "QUANTITATIVE_READOUT": 14}
{"STRUCTURE_AS_SMILES": "COc1cc2ccnc(-c3ccc(NCCCl)cc3)c2cc1OC", "ENDPOINT": "Activity", "QUANTITATIVE_READOUT": 21}
{"STRUCTURE_AS_SMILES": "COc1cc2ccnc(-c3ccc(N)cc3)c2cc1OC", "ENDPOINT": "Activity", "QUANTITATIVE_READOUT": 16}

Kindly note the recorded Activity for COc1cc2ccnc(-c3ccc(NC(=O)CCl)cc3)c2cc1OC , which is 19

====

- TEST_TARGET: Phosphodiesterase 1 (Rattus norvegicus, UniProt Q63421+Q9EPR9+Q01066)
- ASSAY_OVERVIEW: Inhibition of Ca-dependent phosphodiesterase from Rat cerebral cortex using 1 uM cGMP
- Format: tissue-based
# I50 listing for each entry below

Consider the following illustrative entries.
{"COMPOUND": "COc1cc2ccnc(-c3ccc(NC(=O)CCl)cc3)c2cc1OC", "TEST_TARGET": "Phosphodiesterase 1 (Rattus norvegicus, UniProt Q63421+Q9EPR9+Q01066)", "I50": "6.8 µM"}
{"COMPOUND": "COc1cc2ccnc(-c3ccc(N)cc3)c2cc1OC", "TEST_TARGET": "Phosphodiesterase 1 (Rattus norvegicus, UniProt Q63421+Q9EPR9+Q01066)", "I50": "2.1 µM"}
{"COMPOUND": "COC(=O)/C=C/C(=O)Nc1ccc(-c2nccc3cc(OC)c(OC)cc23)cc1", "TEST_TARGET": "Phosphodiesterase 1 (Rattus norvegicus, UniProt Q63421+Q9EPR9+Q01066)", "I50": "> 100 µM"}
{"COMPOUND": "COc1cc2ccnc(-c3ccc(N(CCCl)CCCl)cc3)c2cc1OC", "TEST_TARGET": "Phosphodiesterase 1 (Rattus norvegicus, UniProt Q63421+Q9EPR9+Q01066)", "I50": "15 µM"}
{"COMPOUND": "C=CC(=O)Nc1ccc(-c2nccc3cc(OC)c(OC)cc23)cc1", "TEST_TARGET": "Phosphodiesterase 1 (Rattus norvegicus, UniProt Q63421+Q9EPR9+Q01066)", "I50": "30 µM"}

Kindly note the recorded I50 for COc1cc2ccnc(-c3ccc(NCCCl)cc3)c2cc1OC , which is 12 µM

Kindly note the recorded I50 for COC(=O)/C=C\C(=O)Nc1ccc(-c2nccc3cc(OC)c(OC)cc23)cc1 , which is 1.1 µM

Kindly note the recorded I50 for COc1ccc(Cc2nccc3cc(OC)c(OC)cc23)cc1OC [PAPAVERINE] , which is 21 µM

====

- TEST_TARGET: Phosphodiesterase 1 (Rattus norvegicus) (UniProt Q63421+Q9EPR9+Q01066)
- ASSAY_OVERVIEW: Inhibition of Ca-dependent phosphodiesterase from rat cerebral cortex with 1 uM cGMP without compound, after pre-incubation with 2 or 25 uM (negative control)
- Format: functional, tissue-based
- Design: scale not given: the % may be the effect or the level left
ENDPOINT: Activity (%)
Report the value in % with no unit label.

Consider the following illustrative entries.
{"STRUCTURE_AS_SMILES": "COc1cc2ccnc(-c3ccc(NCCCl)cc3)c2cc1OC", "QUANTITATIVE_READOUT": 102}
{"STRUCTURE_AS_SMILES": "C=CC(=O)Nc1ccc(-c2nccc3cc(OC)c(OC)cc23)cc1", "QUANTITATIVE_READOUT": 103}

Reading of Activity for COc1cc2ccnc(-c3ccc(NC(=O)CCl)cc3)c2cc1OC with Phosphodiesterase 1 (Rattus norvegicus) (UniProt Q63421+Q9EPR9+Q01066): 105

Reading of Activity for COc1cc2ccnc(-c3ccc(N)cc3)c2cc1OC with Phosphodiesterase 1 (Rattus norvegicus) (UniProt Q63421+Q9EPR9+Q01066): 103

Reading of Activity for COC(=O)/C=C\C(=O)Nc1ccc(-c2nccc3cc(OC)c(OC)cc23)cc1 with Phosphodiesterase 1 (Rattus norvegicus) (UniProt Q63421+Q9EPR9+Q01066): 99

Reading of Activity for COc1cc2ccnc(-c3ccc(N(CCCl)CCCl)cc3)c2cc1OC with Phosphodiesterase 1 (Rattus norvegicus) (UniProt Q63421+Q9EPR9+Q01066): 100

Reading of Activity for COC(=O)/C=C/C(=O)Nc1ccc(-c2nccc3cc(OC)c(OC)cc23)cc1 with Phosphodiesterase 1 (Rattus norvegicus) (UniProt Q63421+Q9EPR9+Q01066): 100
